- assay procedure: soluble on expression in E. coli; label from the status in PepcDB or PDB records
reported metric: soluble on expression in E. coli

Consider the following illustrative entries.
MDIKRYCPVTDSELPADHVYFKFRSEIEAAEAYLGLAISEGIKVRETREILDIIDTVYNSLSDPESKLNDFQEKRLNFTEEDWYDIKEKANNGNRWSLYMFLARSAVDSAVYWSYRMKETEEFKEIVKEEMISKLLKAGYVILRESLGEVRL; soluble
MSFVVIIPARFSSTRLPGKPLVDINGKPMIVHVLERARESGAERIIVATDHEDVARAVEAAGGEVCMTRADHQSGTERLAEVVEKCGFSDDTVIVNVQGDEPMIPAVIIRQVAENLAQRQVGMATLAVPIHSAEEAFNPNAVKVVLDAEGYALYFSRATIPWDRDRFAKSLETVGDTCLRHLGIYGYRAGFIRRYVSWQPSPLEHIEMLEQLRVLWYGEKIHVAVAKAVPGTGVDTADDLERVRAEMR; not soluble
MVEIYLFVNPLGGVCLEIEKEIIQLSVNDKKKIQLRFIPLLNMKTINEFLSRQHIPINDIKRRNRIFEDLYSAALDYKAAQLQGRKKGRQLLIGLQKAVAEDGLAYSPELSEELLLAAGGDIDMYRKDRQSDFVKESFQTDQKVAREMGIKQHPTAVVYNYTCENDFGILVENFENMDEIKQLCRVHPHNEPLLNQGDATFEFKRRSNYHFPNGHLHLL; not soluble
MAASMTKPISITSLGFYSDRKNIAFSDCISICSGFRHSRPSCLDLVTKSPSNNSRVLPVVSAQISSDYIPDSKFYKVEAIVRPWRIQQVSSALLKIGIRGVTVSDVRGFGAQGGSTERHGGSEFSEDKFVAKVKMEIVVKKDQVESVINTIIEGARTGEIGDGKIFVLPVSDVIRVRTGERGEKAEKMTGDMLSPS; not soluble
MDAYPEAEAPPQSIVELVPVLIAVTDGGLRVLTVAQGMLLPNGPLSPLRNSLQAGVKLWVAKQTSQPMGYVEQLYTFVDTHRRNEHGMPVLYVSYLGLVREAADSILHPDAKWQDCYGYFPWEDLRTDGGQRDAVVGRLRIWANSADTEEVRQKRLKRIHLCWGVEPENWSEEYVLQRYEMLYESGLIAEAAEPQANFDFALTGQPMRHDHRRVLATALSRLRAKIKYRPVIFELMPPEFTLLQLQNSVEAISGRLLHKQNFRRQIQQQNLIEPSDTGVSGSKGRPAQLCRFRDDVLPDRLISDIGLPLGSR; not soluble
MGSDKIHHHHHHMERLCEQVRKVRRWLIDQPFDGILLSEQKNIAWLTGARAYVNLATERSIVFFLITESETVMYCSNIEKERLLAEEIGDTVGEIHVFPWYDPLLAESITQEQSKIGKVVLDREVESAFKAVRSALSPSQVAGYRQLGKLSAAAVEETALGLQRGETELEIAGRLANAAIKRGIEPVVNLVAVDDRVSAYRHPLPTDKRLDRYVMIVLSGRRNGQYISLTRLVHFGVIPIDLKKKHAAVCTIDSRLMHHTRVGQSMGDLFKEMKAAYATVGYLHEWKNHHQGGLTGYVGRERLLQPDAQELIQANEVYAWNPSITGTKSEDTILVTESGPEILTLGKKFPLMTVTVAGCTYERPDILGRNDG; not soluble
MGSDKIHHHHHHMMFLPEQISKLNELETLVFDFIIKSPEEVQQMTIRDLASQAHVSTSTIVRLCTKLGFEGWSDLKFYLKNQLKEKTPEEQHYDNMLEFNMFLRRMNTDNYQAKLNNAAQMIAKADYTVFLGLGTSGSLSEYATKYFVNTGLRSFVISDPFQAVQVQGMGNVVAVIMSVSGETEQVVNKELEFKAGGAKIISITNNEDCTVAKLADYQLSYNLVNEWSKQYPLGNLTTQLPVLAILEILAHKSIDYHLKK; not soluble
KGFSSEDKGEWKLKLDASGNGQAVIRFLPAKTDDALPFAILVNHGFKKNGKWYIETCSSTHGDYDSCPVCQYISKNDLYNTNKTEYSQLKRKTSYWANILVVKDPQAPDNEGKVFKYRFGKKIWDKINAMIAVDTEMGETPVDVTCPWEGANFVLKVKQVSGFSNYDESKFLNQSAIPNIDDESFQKELFEQMVDLSEMTSKDKFKSFEELNTKFNQVLGTAALGGAAAAAAS; soluble

Query string: Looking for the measured soluble on expression in E. coli of MASETVSNHQEKALALLQADAEKILRLIKVQMDHLTMPQCPLYEEVLDTQMFGLSREVDFAVRLGLIAEEQGKVMLGELERELSALHEAFTNKQQ , can you help?
Result string: not soluble

Query string: Look up soluble on expression in E. coli for this sequence: DDAAIKRKLQSFNISNIVIKSSPISGIKTAVTDQGILYVSEDGKYLFEGKLYELTNNGPVDVAGKILVDKLNSYKDEMIVYPAKNEKHVVTVFMDITCHYCHLLHQQLKEYNDLGITVRYLAFPRAGMNNQTAKQMEAIWTAKDPVFALNEAEKGNLPKEVKTPNIVKKHYELGIQFGVRGTPSIVTSTGELIGGYLKPADLLRALEETAQ
Result string: soluble

Query string: Requested read-out: soluble on expression in E. coli. Entry: MIEMKYILARATDEEIQKRGECGGAVTAIFKYMLDREIVDGVLTLERGDDIYDGIPVLLEDSDEIVSTCGSLHCAPTMFGDLISRYLNDMRLAVAVKPCDAMAIKELEKRHQIDPQRVYMIGLNCGGTLSPVSAREMIETFYEIDPDDVVREEIDKGKFIVELKDGSHKEISIDYLEEEGFGRRENCQRCELMVPRNADIACGNWGAEEGWTFIEVNTDRGEEIIEGARREGYLEVKEPPMKMIEIREKIENAMIKMARKFQDKYLEDEYPSLDDWDEYWKRCINCFACRDLCPICFCRECELEKDYLLESDEKAPDPLTFQGVRLSHMGFSCINCGQCEDVCPMDIPLARIYHRIQRKYRDRTGFTAGVSEELPPMYSGEKDLEHHHHHH
Result string: soluble

Query string: Reported soluble on expression in E. coli, sequence MGSDKIHHHHHHMAPRTKTRERIVQASLELFNQQGERCITTNHIAAHMEISPGNLYYHFANKQVIIAELFTQYETLVGSFLTLRTDRLPTIEDKRDYFLAMIDAMWRYRFLHQDLEHLLTSDAELARRYRRFSYRCLMQAMNIYRGFIKAGILQMDESQIEWTSLNTWIVLTSWVRFLCTNRENNAELNESAIRRGVYQVLMLESVFVAPQAREAFDALCETFHSSLPEALA : ____
Result string: not soluble
